Target: Peroxisome proliferator-activated receptor gamma (Homo sapiens)
Sequence (P37231 whole entry): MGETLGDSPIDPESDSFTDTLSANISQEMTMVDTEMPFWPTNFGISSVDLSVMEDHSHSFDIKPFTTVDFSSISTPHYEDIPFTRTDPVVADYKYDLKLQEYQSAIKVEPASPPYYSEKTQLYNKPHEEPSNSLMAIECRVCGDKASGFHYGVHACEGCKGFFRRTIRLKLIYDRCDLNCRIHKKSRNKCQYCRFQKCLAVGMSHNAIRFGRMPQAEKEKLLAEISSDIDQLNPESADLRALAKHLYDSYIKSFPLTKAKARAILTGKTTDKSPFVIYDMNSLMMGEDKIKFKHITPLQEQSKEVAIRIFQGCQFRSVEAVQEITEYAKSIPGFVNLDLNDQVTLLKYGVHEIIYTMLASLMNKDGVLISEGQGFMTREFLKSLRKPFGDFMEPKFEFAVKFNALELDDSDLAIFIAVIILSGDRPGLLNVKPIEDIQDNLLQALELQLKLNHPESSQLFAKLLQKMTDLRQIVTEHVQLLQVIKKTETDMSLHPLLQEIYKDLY
pKi values, listed per item
Please note pKi is a logarithmic value: minus log10 of concentration in mol/L. Answer with that number alone.

Recorded pKi, per entry:
* CCCc1cc2c(C(F)(F)F)noc2c(CCC)c1OC(C(=O)O)c1ccc(Cl)cc1 (configuration not stated) | 6.76
* CCCc1cc2c(C(F)(F)F)noc2c(CCC)c1O[C@H](C(=O)O)c1ccccc1 | 6.21
* CCCc1cc2c(C(F)(F)F)noc2c(CCC)c1OC(C(=O)O)c1ccc(OCc2ccccn2)cc1 (configuration not stated) | 6.57

Sample CCCc1c(O)c(C(=O)CC)cc(Cl)c1OC(C(=O)O)c1ccccc1 (configuration not stated) , system: Peroxisome proliferator-activated receptor gamma (Homo sapiens). Its pKi is 6.01

The value of pKi recorded for CCCc1cc2c(C(F)(F)F)noc2c(CCC)c1OC(C(=O)O)c1ccc(C(F)(F)F)cc1 (configuration not stated) when tested on Peroxisome proliferator-activated receptor gamma (Homo sapiens) reads 6.98

Query CCCc1cc(C(=O)OC)cc(CCC)c1OC(C(=O)O)c1ccccc1 (configuration not stated) on Peroxisome proliferator-activated receptor gamma (Homo sapiens); pKi returned: 5.96

* * *

Biological target: Peroxisome proliferator-activated receptor alpha (Homo sapiens, UniProt Q07869)
Sequence (Q07869 whole entry): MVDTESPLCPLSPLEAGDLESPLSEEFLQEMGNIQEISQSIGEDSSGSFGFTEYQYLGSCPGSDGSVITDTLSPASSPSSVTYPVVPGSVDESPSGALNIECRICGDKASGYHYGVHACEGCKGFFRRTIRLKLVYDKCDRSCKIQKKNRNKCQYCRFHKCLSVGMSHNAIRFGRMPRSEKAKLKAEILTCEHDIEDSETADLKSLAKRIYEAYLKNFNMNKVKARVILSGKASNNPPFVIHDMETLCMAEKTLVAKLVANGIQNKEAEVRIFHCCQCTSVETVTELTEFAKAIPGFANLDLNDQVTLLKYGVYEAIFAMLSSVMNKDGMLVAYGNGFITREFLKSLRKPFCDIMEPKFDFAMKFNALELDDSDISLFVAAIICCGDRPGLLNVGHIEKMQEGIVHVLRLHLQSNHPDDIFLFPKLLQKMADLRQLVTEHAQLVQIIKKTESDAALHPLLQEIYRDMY
pEC50: −log10 of the molar value.
Outcome label depends on pEC50 relative to 7: at/above gives met, below gives not met.

Below, 6 compounds whose answers are already recorded.
- CCCc1cc2c(C(F)(F)F)noc2c(CCC)c1OC(C(=O)O)c1ccccc1 (stereo not given): met
- CCCc1cc2c(C(F)(F)F)noc2c(CCC)c1OC(C(=O)O)c1ccc(C(F)(F)F)cc1 (stereo not given): met
- CCCc1c(O)c(C(=O)CC)cc(Cl)c1OC(C(=O)O)c1ccccc1 (stereo not given): not met
- CCCc1cc2c(C(F)(F)F)noc2c(CCC)c1OC(C(=O)O)c1ccc(OCc2ccccn2)cc1 (stereo not given): met
- CCCc1cc2c(C(F)(F)F)noc2c(CCC)c1OC(C(=O)O)c1ccc(Cl)cc1 (stereo not given): met
- CCCc1cc(C(=O)CC)c(O)c(CCC)c1OC(C(=O)O)c1ccccc1 (stereo not given): met

Challenge: Assess whether reported pEC50 for CCCc1cc2c(C(F)(F)F)noc2c(CCC)c1OC(C(=O)O)c1ccc(CCc2ccccn2)cc1 (stereo not given) sits at 7 or higher.
Response given: met

Challenge: Determine whether measured pEC50 meets or exceeds 7 for CCCc1c(OC(C(=O)O)c2ccccc2)ccc2c(C(F)(F)F)noc12 (stereo not given)
Response given: not met
